Test system: TNFα
experimentDescription: cells
Assay type: cell-based, human
runConditions: Homo sapiens, Monocyte, LPS-stimulated human monocytes, TNFα content; read-out: EC50 TNF
pEC50: −log10 of the molar value.
Think of 7 as a floor: if pEC50 stands on it or above, it is met; beneath it, not met.

- CC(C)(O)[C@H](F)CNC(=O)c1cnc(-c2ccc3cc(C#N)cnn23)cc1Nc1ccc2c(C#N)c[nH]c2c1: met
- CC1(O)CN(C(=O)C23CCC(Nc4cc(-c5ccc6cc(C#N)cnn56)ncc4C(=O)NC[C@@H](F)C(C)(C)O)(CC2)CC3)C1: not met
- COc1ncc(Nc2cc(-c3ccc4cc(C#N)cnn34)ncc2C(=O)NC[C@@H](F)C(C)(C)O)cn1: met
- CCC(=O)NC[C@H]1C[C@H](Nc2cc(-c3ccc4cc(C#N)cnn34)ncc2C(=O)NC[C@@H](F)C(C)(C)O)C1: met
- CC(C)(C)NC(=O)c1cnc(-c2ccc3cc(C#N)cnn23)cc1NC12CCC(O)(CC1)CC2: not met
- CC(=O)NCc1ccc(Nc2cc(-c3ccc4cc(C#N)cnn34)ncc2C(=O)NC[C@@H](F)C(C)(C)O)cc1: met
